- target: h P2X3 (Homo sapiens, UniProt P56373)
- Sequence (P56373 whole entry): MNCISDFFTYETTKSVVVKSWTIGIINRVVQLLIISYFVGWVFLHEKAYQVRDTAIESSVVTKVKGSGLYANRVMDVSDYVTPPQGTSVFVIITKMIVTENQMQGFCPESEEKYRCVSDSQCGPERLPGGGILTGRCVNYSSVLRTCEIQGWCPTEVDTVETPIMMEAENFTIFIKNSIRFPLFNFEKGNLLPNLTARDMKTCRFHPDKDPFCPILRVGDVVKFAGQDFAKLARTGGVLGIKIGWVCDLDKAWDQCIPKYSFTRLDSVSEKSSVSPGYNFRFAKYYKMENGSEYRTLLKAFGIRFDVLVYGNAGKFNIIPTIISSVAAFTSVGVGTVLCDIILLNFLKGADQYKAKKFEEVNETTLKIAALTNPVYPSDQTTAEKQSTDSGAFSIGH
- measurementNotes: In vitro electrophysiology assay for P2X3 (automated whole-cell patch clamp, Sophion Qube)
- Format: cell-based
- conditionDetails: Table 6; range of activity; inhibition of P2X3 current, agonist α,β-MeATP (800 nM)
measurementName: IC50

>>> observedvalue("COc1cc(-n2cc(C)cn2)cc2c(N[C@H](C)c3ccc(C)nn3)ncnc12")
"< 316 nM"
>>> observedvalue("COc1cc(-c2ncc(C)cn2)cc2c(NCc3nc(C)no3)ncnc12")
"316 to 3160 nM"
>>> observedvalue("COc1cc(-c2ncc(C)s2)cc2c(NCc3ccc(F)cn3)ncnc12")
"< 316 nM"
>>> observedvalue("COc1cc(-n2cc(Cl)cn2)cc2c(N[C@H](C)c3cnc(C(F)(F)F)nc3)ncnc12")
"< 316 nM"
>>> observedvalue("C[C@@H](Nc1ncnc2c(OC3CCNC4(CCC4)C3)cc(-c3ccc(F)cc3)cc12)c1cnc(C(F)(F)F)nc1 (stereo partly shown)")
"< 316 nM"
>>> observedvalue("COc1cc(-c2ccc(C)cn2)cc2c(N[C@H](C)c3ccn(C)n3)ncnc12")
"< 316 nM"
>>> observedvalue("COc1cc(-c2ccc(F)cc2)cc2c(NC(C)c3nc(-c4ccncc4)no3)ncnc12 (single isomer, unassigned) [Example 193]")
"< 316 nM"
>>> observedvalue("COCCOc1cc(-c2ncc(C)s2)cc2c(NCc3ccc(C)nn3)ncnc12")
"< 316 nM"

Recorded IC50 of COc1cc(-c2ncc(C)cn2)cc2c(NC(C)c3nnc(C)s3)ncnc12 (single isomer, unassigned) [Example 125] , please.
< 316 nM

Recorded IC50 of COc1cc(-c2ncc(F)cn2)cc2c(NC(C)c3nnc(C)s3)ncnc12 (stereo not shown) , please.
316 to 3160 nM

Recorded IC50 of `Cc1cnc(-c2cc(OC3CCOCC3)c3ncnc(NCc4ccc(C)nn4)c3c2)nc1` , please.
316 to 3160 nM

Recorded IC50 of COc1cc(-c2ccc(F)cn2)cc2c(NC(C)c3ccc(C(F)(F)F)nn3)ncnc12 (single isomer, unassigned) [Example 169] , please.
< 316 nM

Ref: patent US12466820B2
